The measurements presented in this section are drawn from ChEMBL document CHEMBL5058577.

System: HEK-293T
Test: Multiplex assay against HEK293T
Assay type: toxicity, cell-based
Settings: human, 48 h, 1 µM, compound concentration 1 uM, replicate 2
observed property: Population Normal (%)
Write the numeric value and append its unit.

Param item = "COc1ccccc1N1CCN(C[C@@H](C(=O)NC(C)(C)C)c2ccccc2)CC1.Cl.Cl" ; retrieve measured Population Normal (%).
93%

###

Test system: Fibroblast
Assay: Multiplex assay against human fibroblast
Assay type: toxicity, cell-based
Conditions: 48 h, 1 µM, compound concentration 1 uM, replicate 2
observed property: Population Pyknosed Nuclei (%)
Number only, in %; omit the unit.

Param item = "COc1ccccc1N1CCN(C[C@@H](C(=O)NC(C)(C)C)c2ccccc2)CC1.Cl.Cl" ; retrieve measured Population Pyknosed Nuclei (%).
15

Moving on to "Cc1cccc(NC(=O)CN2CCC(c3ccccn3)CC2)c1.Cl.Cl"
12

Moving on to "CC(/C=C1\SC(=S)N(CCCC(=O)Nc2ccc(C(=O)O)c(O)c2)C1=O)=C\c1ccccc1"
14
